- MEASURED TARGET: prothrombinase complex (Homo sapiens)
- Sequence (P00742 41-179 limits assumed): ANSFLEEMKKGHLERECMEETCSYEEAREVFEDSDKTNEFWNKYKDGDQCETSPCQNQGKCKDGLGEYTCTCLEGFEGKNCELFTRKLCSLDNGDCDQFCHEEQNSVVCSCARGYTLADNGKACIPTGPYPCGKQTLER
- Sequence (P00742 235-488 limits assumed): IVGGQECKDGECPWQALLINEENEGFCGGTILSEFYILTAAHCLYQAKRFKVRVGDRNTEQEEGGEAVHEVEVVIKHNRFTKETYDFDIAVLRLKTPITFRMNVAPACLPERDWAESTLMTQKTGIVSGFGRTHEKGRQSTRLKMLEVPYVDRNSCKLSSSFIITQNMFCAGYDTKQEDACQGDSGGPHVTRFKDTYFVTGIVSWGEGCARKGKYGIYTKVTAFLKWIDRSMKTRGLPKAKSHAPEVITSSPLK
- Sequence (P12259 29-737 partner limits assumed): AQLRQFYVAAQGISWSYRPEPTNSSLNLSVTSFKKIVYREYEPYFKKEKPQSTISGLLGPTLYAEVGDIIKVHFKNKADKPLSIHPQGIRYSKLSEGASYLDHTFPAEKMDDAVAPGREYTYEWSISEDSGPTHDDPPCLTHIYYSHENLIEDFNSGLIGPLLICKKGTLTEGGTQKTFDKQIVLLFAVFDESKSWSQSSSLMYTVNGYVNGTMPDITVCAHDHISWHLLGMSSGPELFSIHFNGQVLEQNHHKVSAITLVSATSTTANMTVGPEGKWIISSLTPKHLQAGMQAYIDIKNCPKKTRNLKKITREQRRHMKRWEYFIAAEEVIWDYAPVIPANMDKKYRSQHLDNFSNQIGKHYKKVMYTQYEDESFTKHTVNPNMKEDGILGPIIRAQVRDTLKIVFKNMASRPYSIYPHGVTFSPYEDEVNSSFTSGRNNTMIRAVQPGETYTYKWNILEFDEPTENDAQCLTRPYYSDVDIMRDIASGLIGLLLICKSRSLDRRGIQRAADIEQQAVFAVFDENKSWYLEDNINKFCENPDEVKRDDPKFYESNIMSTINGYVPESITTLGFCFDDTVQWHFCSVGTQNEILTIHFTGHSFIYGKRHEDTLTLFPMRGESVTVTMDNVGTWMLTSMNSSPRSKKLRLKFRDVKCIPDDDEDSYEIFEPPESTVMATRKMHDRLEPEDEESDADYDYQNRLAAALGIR
- Sequence (P12259 1574-2224 partner limits assumed): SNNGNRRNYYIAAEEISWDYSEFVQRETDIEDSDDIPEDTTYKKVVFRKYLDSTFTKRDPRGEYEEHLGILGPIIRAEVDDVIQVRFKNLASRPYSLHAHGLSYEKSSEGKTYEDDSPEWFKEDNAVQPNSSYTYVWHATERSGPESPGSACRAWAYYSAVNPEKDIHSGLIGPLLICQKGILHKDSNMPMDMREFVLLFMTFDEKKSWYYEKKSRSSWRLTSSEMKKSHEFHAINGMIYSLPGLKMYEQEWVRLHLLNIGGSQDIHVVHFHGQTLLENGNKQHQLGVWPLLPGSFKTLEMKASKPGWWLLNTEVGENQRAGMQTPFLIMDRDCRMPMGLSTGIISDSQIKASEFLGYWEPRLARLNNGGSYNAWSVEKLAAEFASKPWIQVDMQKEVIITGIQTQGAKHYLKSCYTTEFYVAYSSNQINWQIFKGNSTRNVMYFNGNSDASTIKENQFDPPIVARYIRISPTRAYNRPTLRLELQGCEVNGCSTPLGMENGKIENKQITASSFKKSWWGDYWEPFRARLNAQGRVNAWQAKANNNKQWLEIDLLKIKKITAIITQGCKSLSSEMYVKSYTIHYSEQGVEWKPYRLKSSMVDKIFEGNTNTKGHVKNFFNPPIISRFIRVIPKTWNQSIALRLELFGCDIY
- PROTOCOL DESCRIPTION: prothrombinase inhibition assay (plasma free system, Chromozym TH)
- Format: biochemical
- REPORTED CONDITIONS: Table 3, probe of regiochemistry
- Procedure: The prothrombinase inhibition assay is performed in a plasma free system with modifications to the method described by Sinha, U. et al., Thromb. […] Specifically, the activity of the prothrombinase complex is determined by measuring the time course of thrombin generation using the p-nitroanilide substrate Chromozym TH. […] Aliquots from the complex-inhibitor mixture are added to prothrombin (1 nM) and Chromozym TH (0.1 mM). […] Eight different concentrations of inhibitor are assayed in duplicate. […]
EXPERIMENTAL ENDPOINT: IC50 (nM)

I = CC(=N)N1CCC(Oc2ccc3c(c2)OCC(=O)N3Cc2cccc(-c3cccc(C(=N)N)c3)c2)CC1
II = CC(=N)N1CCC(Oc2ccc3c(c2)N(Cc2ccc4ccc(C(=N)N)cc4c2)C(=O)CO3)CC1
III = CC(=N)N1CCC(Oc2ccc3c(c2)N(Cc2cccc(-c4cccc(C(=N)N)c4)c2)C(=O)CO3)CC1
Put these in order: smallest IC50 first, largest last. Give your ranking as a list of the labels in the requested order.
I, II, III
(I: 214 nM, II: 352 nM, III: 934 nM)
